B1: glmS ribozyme (parent)
chain: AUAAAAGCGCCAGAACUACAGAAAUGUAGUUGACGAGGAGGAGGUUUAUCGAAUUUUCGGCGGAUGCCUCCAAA

- Variants of: B1
- test name: self-cleavage kobs at 2500 uM GlcN6P; higher = faster cleavage; RNA array
- experimental parameters: with glucosamine-6-phosphate
Fewer inactive variants are shown than the library holds.
value type: self-cleavage kobs at 2500 uM GlcN6P

mutation string	self-cleavage kobs at 2500 uM GlcN6P
U54G C58U	3.75e-05 s⁻¹
A36G G43A G59U	< 1e-05 s⁻¹

Attention now shifts to the item below.
Short answer for G13A G35A A42U : self-cleavage kobs at 2500 uM GlcN6P was < 1e-05 s⁻¹
